Hey, just so you know, these numbers are from patent US20260130925A1.

MEASURED_ON: PI3Kα H1047R in T47D cells (Homo sapiens, UniProt P42336, H1047R)
Construct: endogenous in cells; host or cells: T47D
Sequence (P42336 whole entry H1047R): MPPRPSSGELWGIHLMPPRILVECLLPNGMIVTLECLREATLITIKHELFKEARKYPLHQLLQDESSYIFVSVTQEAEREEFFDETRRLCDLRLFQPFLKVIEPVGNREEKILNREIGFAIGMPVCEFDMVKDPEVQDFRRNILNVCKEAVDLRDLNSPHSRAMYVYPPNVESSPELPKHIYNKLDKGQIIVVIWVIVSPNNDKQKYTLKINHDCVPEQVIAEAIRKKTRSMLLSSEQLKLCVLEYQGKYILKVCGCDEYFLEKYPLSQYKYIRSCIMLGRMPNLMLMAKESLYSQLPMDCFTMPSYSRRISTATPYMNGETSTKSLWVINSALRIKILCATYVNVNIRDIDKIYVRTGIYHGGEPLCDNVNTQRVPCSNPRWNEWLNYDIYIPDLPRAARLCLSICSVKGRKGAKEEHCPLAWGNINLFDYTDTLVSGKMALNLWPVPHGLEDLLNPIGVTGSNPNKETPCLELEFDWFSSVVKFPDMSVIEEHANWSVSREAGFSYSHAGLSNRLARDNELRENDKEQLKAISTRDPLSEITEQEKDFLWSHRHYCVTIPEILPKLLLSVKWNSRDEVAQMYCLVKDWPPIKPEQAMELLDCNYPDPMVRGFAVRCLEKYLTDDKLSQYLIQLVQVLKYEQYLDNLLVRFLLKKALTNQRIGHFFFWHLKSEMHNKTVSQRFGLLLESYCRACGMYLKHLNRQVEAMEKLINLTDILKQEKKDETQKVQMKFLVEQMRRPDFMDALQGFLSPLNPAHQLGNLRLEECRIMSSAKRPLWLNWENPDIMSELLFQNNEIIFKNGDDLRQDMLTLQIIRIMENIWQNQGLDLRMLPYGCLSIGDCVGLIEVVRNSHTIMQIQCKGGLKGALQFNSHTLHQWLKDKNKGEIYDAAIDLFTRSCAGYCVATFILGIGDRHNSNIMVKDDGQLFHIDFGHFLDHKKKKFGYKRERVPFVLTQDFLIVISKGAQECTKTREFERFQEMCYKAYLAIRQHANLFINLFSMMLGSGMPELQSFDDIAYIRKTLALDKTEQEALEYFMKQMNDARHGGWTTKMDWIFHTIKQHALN
Sequence (P27986 whole entry partner): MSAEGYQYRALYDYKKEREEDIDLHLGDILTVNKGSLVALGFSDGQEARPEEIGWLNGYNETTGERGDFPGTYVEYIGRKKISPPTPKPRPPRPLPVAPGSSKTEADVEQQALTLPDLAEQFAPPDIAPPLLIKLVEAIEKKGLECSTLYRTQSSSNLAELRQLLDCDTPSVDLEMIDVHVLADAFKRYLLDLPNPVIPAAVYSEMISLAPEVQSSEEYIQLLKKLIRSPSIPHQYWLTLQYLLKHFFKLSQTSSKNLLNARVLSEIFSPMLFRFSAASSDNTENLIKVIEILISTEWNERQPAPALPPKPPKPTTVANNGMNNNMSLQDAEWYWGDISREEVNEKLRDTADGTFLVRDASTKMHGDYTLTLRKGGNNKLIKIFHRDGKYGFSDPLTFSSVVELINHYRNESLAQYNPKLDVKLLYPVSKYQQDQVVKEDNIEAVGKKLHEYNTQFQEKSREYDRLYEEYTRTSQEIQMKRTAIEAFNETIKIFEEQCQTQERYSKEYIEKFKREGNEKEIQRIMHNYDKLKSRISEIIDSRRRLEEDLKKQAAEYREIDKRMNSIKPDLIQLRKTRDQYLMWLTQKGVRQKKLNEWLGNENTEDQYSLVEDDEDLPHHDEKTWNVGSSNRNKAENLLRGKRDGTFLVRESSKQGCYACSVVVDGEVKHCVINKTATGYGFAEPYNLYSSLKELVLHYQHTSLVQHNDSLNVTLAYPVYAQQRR
ASSAY_NOTES: PI3Kα cellular assay: T47D pAKT S473 HTRF
Assay type: cell-based
EXPERIMENTAL_CONTEXT: T47D (H1047R) versus SKBR3 (WT) cells
Experimental: PI3Kα cellular assay experimental procedure: SKBR3 or T47D cells are seeded in DMEM containing 10% FBS at 25 k cells/well into 96-well cell culture format. Cells are incubated overnight at 37° C. in a 5% CO2 incubator and the following day cell media is aspirated, adherent cells are washed 1× with room temperature PBS prior to serum-free media application. Cells are returned to 37° C. […] 384 well plate is left overnight at room temperature before reading HTRF on an Envision plate reader.
MEASURED_ENDPOINT: T47D pAKT S473 HTRF IC50 (H1047R): T47D (H1047R) selectivity over SKBR3 (WT)

Past entries and their recorded results:
>>> test_value("Cc1cc([C@H](C)Nc2ccccc2C(=O)O)c2nc(-c3ccc(F)cc3)n(C)c(=O)c2c1")
"C (C denotes ≤5-fold)"
>>> test_value("Cc1cc([C@H](C)Nc2ccccc2C(=O)O)c2nc(-c3ccc4c(c3)c(C)nn4C)n(C)c(=O)c2c1 (single isomer, unassigned)")
"A (A denotes >20-fold)"
>>> test_value("Cc1cc([C@@H](C)Nc2ccccc2C(=O)O)c2nc(-c3ccnc(C#N)c3)n(C)c(=O)c2c1")
"A (A denotes >20-fold)"
>>> test_value("Cc1cc([C@@H](C)Nc2ccccc2C(=O)O)c2nc(N3Cc4ccccc4C3)[nH]c(=O)c2c1")
"C (C denotes ≤5-fold)"
>>> test_value("Cc1cc(C(C)Nc2ccccc2C(=O)O)c2nc(N3CCC(C)(C)CC3)nc(C#N)c2c1 (stereo not drawn) [Compound 61]")
"A (A denotes >20-fold)"
>>> test_value("Cc1cc(C(C)Nc2ccccc2C(=O)O)c2nc(N3Cc4ccccc4C3)[nH]c(=O)c2c1 (stereo not drawn)")
"C (C denotes ≤5-fold)"
>>> test_value("CCOc1nc(N2Cc3ccccc3C2)nc2c([C@@H](C)Nc3ccccc3C(=O)O)cc(C)cc12")
"C (C denotes ≤5-fold)"
>>> test_value("Cc1cc([C@@H](C)Nc2ccccc2C(=O)O)c2nc(-c3ccc4c(c3)c(C)nn4C)n(C)c(=O)c2c1")
"C (C denotes ≤5-fold)"

Entry under test: Cc1cc([C@@H](C)Nc2ccccc2C(=O)O)c2cc(-c3ccc4c(c3)c(C)nn4C)n(C)c(=O)c2c1 . Its T47D pAKT S473 HTRF IC50 (H1047R): T47D (H1047R) selectivity over SKBR3 (WT) was A (A denotes >20-fold)

* * *

MEASURED_ON: PI3Kα H1047R in T47D cells (Homo sapiens, UniProt P42336, H1047R)
Construct: endogenous in cells
ASSAY_NOTES: PI3Kα cellular assay: T47D pAKT S473 HTRF
EXPERIMENTAL_CONTEXT: T47D cells (H1047R), serum starved, 1 hr compound, 20 ng/ml EGF 10 min
pIC50: −log10 of the molar value.
MEASURED_ENDPOINT: pIC50

Entry under test: CCOc1nc(N2Cc3ccccc3C2)nc2c([C@@H](C)Nc3ccccc3C(=O)O)cc(C)cc12 [Compound 147] . Its pIC50 was ≤ 5.70

Entry under test: Cc1cc(C(C)Nc2ccccc2C(=O)O)c2nc(-c3ccc4c(c3)c(C)cn4C)n(C)c(=O)c2c1 (centres unmarked) [Compound 133] . Its pIC50 was > 6.12

Entry under test: Cc1cc(C(C)Nc2ccccc2C(=O)O)c2nc(N3CCC(C)(C)CC3)nc(C#N)c2c1 (centres unmarked) [Compound 61] . Its pIC50 was > 6.12

Entry under test: Cc1cc([C@@H](C)Nc2ccccc2C(=O)O)c2[nH]c(N3CCOCC3)nc(=O)c2c1 [Compound 18] . Its pIC50 was ≤ 5.70

Entry under test: Cc1cc(C(C)Nc2ccccc2C(=O)O)c2nc(-c3ccc(C4CC4)nc3)n(C)c(=O)c2c1 (centres unmarked) [Compound 136] . Its pIC50 was > 6.12

Entry under test: Cc1cc(C(C)Nc2ccccc2C(=O)O)c2nc(-c3ccncc3)nc(O)c2c1 (centres unmarked) [Compound 9] . Its pIC50 was > 6.12

Entry under test: Cc1cc([C@H](C)Nc2ccccc2C(=O)O)c2nc(N3Cc4ccccc4C3)nc(N3CC(O)C3)c2c1 [Compound 144] . Its pIC50 was 5.70 to 6.12

Entry under test: Cc1cc([C@H](C)Nc2ccccc2C(=O)O)c2nc(N3Cc4ccccc4C3)ncc2c1 [Compound 36] . Its pIC50 was 5.70 to 6.12
